Overview of recorded MIC for various compounds
System: Bacillus subtilis
Test: Antibacterial activity against Bacillus subtilis ATCC 23857 assessed as bacterial growth inhibition
Type: functional

{"COMPOUND": "N.O=NN(O)c1ccccc1", "TARGET ENTITY": "Bacillus subtilis", "DISPLAY UNIT": "µg/mL", "MIC": 16}
{"COMPOUND": "N.O=NN(O)c1ccc(Cl)cc1", "TARGET ENTITY": "Bacillus subtilis", "DISPLAY UNIT": "µg/mL", "MIC": 2}
{"COMPOUND": "O=C(O)c1cn(C2CC2)c2cc(N3CCNCC3)c(F)cc2c1=O [CIPROFLOXACIN]", "TARGET ENTITY": "Bacillus subtilis", "DISPLAY UNIT": "µg/mL", "MIC": 2}
{"COMPOUND": "N.O=NN(O)c1ccc(CCl)cc1", "TARGET ENTITY": "Bacillus subtilis", "DISPLAY UNIT": "µg/mL", "MIC": 16}

----------
Tested on: Escherichia coli
Test: Antibacterial activity against Escherichia coli ATCC 25922 assessed as bacterial growth inhibition
Format: functional
Active and inactive are the calls of the source. No cut-off for these calls is given here.
MEASUREMENT LABEL: MIC

{"COMPOUND": "N.O=NN(O)c1ccc(CCl)cc1", "TARGET ENTITY": "Escherichia coli", "MEASURED VALUE": "inactive"}
{"COMPOUND": "N.O=NN(O)c1ccccc1", "TARGET ENTITY": "Escherichia coli", "MEASURED VALUE": "inactive"}
{"COMPOUND": "CN[C@@H]1[C@H](O[C@H]2[C@H](O[C@H]3[C@H](O)[C@@H](O)[C@H](N=C(N)N)[C@@H](O)[C@@H]3N=C(N)N)O[C@@H](C)[C@]2(O)C=O)O[C@@H](CO)[C@H](O)[C@H]1O", "TARGET ENTITY": "Escherichia coli", "MEASURED VALUE": "16 µg/mL"}
{"COMPOUND": "N.O=NN(O)c1ccc(Cl)cc1", "TARGET ENTITY": "Escherichia coli", "MEASURED VALUE": "20 µg/mL"}

----------
Test system: Staphylococcus aureus
Assay: Antibacterial activity against Staphylococcus aureus […] assessed as zone of inhibition at 10 mg/ml
Format: functional
Conditions: read-out: IZ
MEASUREMENT LABEL: zone of inhibition at 10000 µg/mL (mm)

{"COMPOUND": "N.O=NN(O)c1ccccc1", "TARGET ENTITY": "Staphylococcus aureus", "DISPLAY UNIT": "mm", "MEASURED VALUE": 9}
{"COMPOUND": "CN[C@@H]1[C@H](O[C@H]2[C@H](O[C@H]3[C@H](O)[C@@H](O)[C@H](N=C(N)N)[C@@H](O)[C@@H]3N=C(N)N)O[C@@H](C)[C@]2(O)C=O)O[C@@H](CO)[C@H](O)[C@H]1O", "TARGET ENTITY": "Staphylococcus aureus", "DISPLAY UNIT": "mm", "MEASURED VALUE": 4}
{"COMPOUND": "N.O=NN(O)c1ccc(Cl)cc1", "TARGET ENTITY": "Staphylococcus aureus", "DISPLAY UNIT": "mm", "MEASURED VALUE": 9}
{"COMPOUND": "N.O=NN(O)c1ccc(CCl)cc1", "TARGET ENTITY": "Staphylococcus aureus", "DISPLAY UNIT": "mm", "MEASURED VALUE": 12}
{"COMPOUND": "O=C(O)c1cn(C2CC2)c2cc(N3CCNCC3)c(F)cc2c1=O", "TARGET ENTITY": "Staphylococcus aureus", "DISPLAY UNIT": "mm", "MEASURED VALUE": 10}

----------
Tested on: Staphylococcus aureus
Experiment: Antibacterial activity against Staphylococcus aureus […] assessed as zone of inhibition at 15 mg/ml
Type: functional
Details: read-out: IZ

{"COMPOUND": "N.O=NN(O)c1ccc(CCl)cc1", "TARGET ENTITY": "Staphylococcus aureus", "zone of inhibition at 15000 µg/mL (mm)": 20}
{"COMPOUND": "O=C(O)c1cn(C2CC2)c2cc(N3CCNCC3)c(F)cc2c1=O [CIPROFLOXACIN]", "TARGET ENTITY": "Staphylococcus aureus", "zone of inhibition at 15000 µg/mL (mm)": 22}
{"COMPOUND": "N.O=NN(O)c1ccccc1", "TARGET ENTITY": "Staphylococcus aureus", "zone of inhibition at 15000 µg/mL (mm)": 12}
{"COMPOUND": "N.O=NN(O)c1ccc(Cl)cc1", "TARGET ENTITY": "Staphylococcus aureus", "zone of inhibition at 15000 µg/mL (mm)": 25}
{"COMPOUND": "CN[C@@H]1[C@H](O[C@H]2[C@H](O[C@H]3[C@H](O)[C@@H](O)[C@H](N=C(N)N)[C@@H](O)[C@@H]3N=C(N)N)O[C@@H](C)[C@]2(O)C=O)O[C@@H](CO)[C@H](O)[C@H]1O [STREPTOMYCIN]", "TARGET ENTITY": "Staphylococcus aureus", "zone of inhibition at 15000 µg/mL (mm)": 8}

----------
Test system: Streptococcus pyogenes
Assay: Antibacterial activity against Streptococcus pyogenes ATCC 19615 assessed as zone of inhibition at 15 mg/ml
Format: functional
Conditions: read-out: IZ

{"COMPOUND": "N.O=NN(O)c1ccc(CCl)cc1", "zone of inhibition at 15000 µg/mL": "18 mm"}
{"COMPOUND": "N.O=NN(O)c1ccccc1", "zone of inhibition at 15000 µg/mL": "20 mm"}
{"COMPOUND": "CN[C@@H]1[C@H](O[C@H]2[C@H](O[C@H]3[C@H](O)[C@@H](O)[C@H](N=C(N)N)[C@@H](O)[C@@H]3N=C(N)N)O[C@@H](C)[C@]2(O)C=O)O[C@@H](CO)[C@H](O)[C@H]1O [STREPTOMYCIN]", "zone of inhibition at 15000 µg/mL": "10 mm"}
{"COMPOUND": "N.O=NN(O)c1ccc(Cl)cc1", "zone of inhibition at 15000 µg/mL": "27 mm"}
{"COMPOUND": "O=C(O)c1cn(C2CC2)c2cc(N3CCNCC3)c(F)cc2c1=O [CIPROFLOXACIN]", "zone of inhibition at 15000 µg/mL": "26 mm"}

----------
Listed next: entries and their corresponding zone of inhibition at 15000 µg/mL.
Test system: Bacillus subtilis
Test: Antibacterial activity against Bacillus subtilis ATCC 23857 assessed as zone of inhibition at 15 mg/ml
Format: functional
Settings: read-out: IZ

{"COMPOUND": "N.O=NN(O)c1ccccc1", "TARGET ENTITY": "Bacillus subtilis", "DISPLAY UNIT": "mm", "zone of inhibition at 15000 µg/mL": 17}
{"COMPOUND": "N.O=NN(O)c1ccc(Cl)cc1", "TARGET ENTITY": "Bacillus subtilis", "DISPLAY UNIT": "mm", "zone of inhibition at 15000 µg/mL": 35}
{"COMPOUND": "CN[C@@H]1[C@H](O[C@H]2[C@H](O[C@H]3[C@H](O)[C@@H](O)[C@H](N=C(N)N)[C@@H](O)[C@@H]3N=C(N)N)O[C@@H](C)[C@]2(O)C=O)O[C@@H](CO)[C@H](O)[C@H]1O [STREPTOMYCIN]", "TARGET ENTITY": "Bacillus subtilis", "DISPLAY UNIT": "mm", "zone of inhibition at 15000 µg/mL": 20}
{"COMPOUND": "O=C(O)c1cn(C2CC2)c2cc(N3CCNCC3)c(F)cc2c1=O [CIPROFLOXACIN]", "TARGET ENTITY": "Bacillus subtilis", "DISPLAY UNIT": "mm", "zone of inhibition at 15000 µg/mL": 27}
{"COMPOUND": "N.O=NN(O)c1ccc(CCl)cc1", "TARGET ENTITY": "Bacillus subtilis", "DISPLAY UNIT": "mm", "zone of inhibition at 15000 µg/mL": 18}

----------
Reported zone of inhibition at 10000 µg/mL by item:
Tested on: Pseudomonas aeruginosa
Assay: Antibacterial activity against Pseudomonas aeruginosa ATCC 27853 assessed as zone of inhibition at 10 mg/ml
Type: functional
Details: read-out: IZ
MEASUREMENT LABEL: zone of inhibition at 10000 µg/mL (mm)

{"COMPOUND": "O=C(O)c1cn(C2CC2)c2cc(N3CCNCC3)c(F)cc2c1=O", "DISPLAY UNIT": "mm", "MEASURED VALUE": 18}
{"COMPOUND": "CN[C@@H]1[C@H](O[C@H]2[C@H](O[C@H]3[C@H](O)[C@@H](O)[C@H](N=C(N)N)[C@@H](O)[C@@H]3N=C(N)N)O[C@@H](C)[C@]2(O)C=O)O[C@@H](CO)[C@H](O)[C@H]1O", "DISPLAY UNIT": "mm", "MEASURED VALUE": 11}
{"COMPOUND": "N.O=NN(O)c1ccc(CCl)cc1", "DISPLAY UNIT": "mm", "MEASURED VALUE": 10}
{"COMPOUND": "N.O=NN(O)c1ccc(Cl)cc1", "DISPLAY UNIT": "mm", "MEASURED VALUE": 10}
